Let's look at some compounds and their measured IC50.
Molecular target: human FOXO1 (constitutively active form Thr24Ala, Ser256Ala, Ser319Ala) (Homo sapiens, UniProt Q12778, S256A/S319A/T24A)
Sequence (Q12778 whole entry T24A/S256A/S319A): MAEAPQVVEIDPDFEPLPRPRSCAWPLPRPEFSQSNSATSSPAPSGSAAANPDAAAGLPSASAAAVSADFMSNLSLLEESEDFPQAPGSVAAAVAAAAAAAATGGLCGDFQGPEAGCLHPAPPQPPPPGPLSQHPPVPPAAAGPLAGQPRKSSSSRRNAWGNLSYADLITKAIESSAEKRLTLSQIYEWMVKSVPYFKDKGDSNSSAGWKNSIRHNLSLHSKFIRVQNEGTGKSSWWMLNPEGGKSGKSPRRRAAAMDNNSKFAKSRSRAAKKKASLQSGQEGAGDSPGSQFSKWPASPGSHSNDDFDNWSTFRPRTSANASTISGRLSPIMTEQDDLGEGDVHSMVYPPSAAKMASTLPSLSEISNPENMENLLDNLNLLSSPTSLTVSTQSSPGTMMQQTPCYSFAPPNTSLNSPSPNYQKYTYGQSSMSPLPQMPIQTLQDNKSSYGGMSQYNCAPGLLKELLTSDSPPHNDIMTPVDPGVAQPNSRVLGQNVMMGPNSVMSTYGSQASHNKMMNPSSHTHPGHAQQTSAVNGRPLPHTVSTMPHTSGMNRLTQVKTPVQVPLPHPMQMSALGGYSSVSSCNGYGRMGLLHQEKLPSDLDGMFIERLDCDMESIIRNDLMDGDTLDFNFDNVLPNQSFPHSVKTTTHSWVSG
Assay: FOXO1 inhibitor activity assay: cell-based transcriptional (luciferase) reporter assay in HEK293 cells
Settings: HEK293 cells transfected with insulin response element firefly luciferase reporter, FOXO1 and Renilla luciferase; 10-point dose response 50 μM to 2.5 nM; 24 hours
MEASURED_METRIC: IC50

| COMPOUND | RESULT |
| --- | --- |
| COCCOc1ccc(C(=O)Nc2cc(-c3nc4cccc(F)c4[nH]3)n(C)n2)cc1Cl [Compound A-164] | < 100 nM |
| O=C(Nc1cc(-c2nc3ccccc3[nH]2)[nH]n1)c1ccc(N2CCNCC2)nc1 [Compound A-218] | 100 to 300 nM |
| Cn1nc(NC(=O)c2ccc(N3CCC(N4CCOCC4)CC3)nc2)cc1-c1nc2cccc(F)c2[nH]1 [Compound A-173] | 100 to 300 nM |
| O=C(Nc1cc(-c2nc3cc(C(F)(F)F)ccc3[nH]2)[nH]n1)c1ccc(N2CCC(O)CC2)nc1 [Compound A-105] | > 1000 nM |

* * *

Target: human FOXO1 (constitutively active form Thr24Ala, Ser256Ala, Ser319Ala) (Homo sapiens, UniProt Q12778, S256A/S319A/T24A)
Assay: FOXO1 inhibitor activity assay: cell-based transcriptional (luciferase) reporter assay in HEK293 cells
Settings: HEK293 cells transfected with insulin response element firefly luciferase reporter, FOXO1 and Renilla luciferase; 10-point dose response 50 μM to 2.5 nM; 24 hours
pIC50: −log10 of the molar value.
Parameter pIC50: see the listing below.

| COMPOUND | pIC50 |
| --- | --- |
| COC1CN(c2ccc(C(=O)Nc3cc(-c4nc5cccc(F)c5[nH]4)[nH]n3)cn2)C1 [Compound A-131] | 6.52 to 7.00 |
| Cn1nc(NC(=O)c2ccc(N3CCN4C(=O)OCC4C3)nc2)cc1-c1nc2ccccc2[nH]1 (stereo not drawn) [Compound A-276] | > 7.00 |
| Cn1nc(NC(=O)c2ccc(N3CCN4C(=O)CC[C@H]4C3)nc2)cc1-c1nc2ccccc2[nH]1 [Compound A-250] | 6.00 to 6.52 |
| Cn1nc(NC(=O)c2ccc(N3CCN(C4COC4)CC3)nc2)cc1-c1nc2ccccc2[nH]1 [Compound A-203] | 6.52 to 7.00 |
| COc1cc(F)c2[nH]c(-c3cc(NC(=O)c4ccc(N5CCN(CCO)CC5)cc4)nn3C)nc2c1 [Compound A-222] | > 7.00 |
| O=C(Nc1cc(-c2nc3ccccc3[nH]2)[nH]n1)c1ccc(N2CCCC(CO)C2)nc1 (stereo not drawn) [Compound A-68] | > 7.00 |
| COc1ccc(C(=O)Nc2cc(-c3nc4ccccc4[nH]3)n(CCO)n2)cc1Cl [Compound A-195] | 6.52 to 7.00 |
| COc1cc(F)c2[nH]c(-c3cc(NC(=O)c4ccc(N5CCN(C6COC6)CC5)nc4)nn3C)nc2c1 [Compound A-214] | > 7.00 |
| C[C@@H]1CN(c2ccc(C(=O)Nc3cc(-c4nc5ccccc5[nH]4)n(C)n3)cn2)C[C@H](C)N1 [Compound A-255] | > 7.00 |
| O=C(Nc1cc(-c2nc3ccccc3[nH]2)[nH]n1)c1ccc(OCCO)c(C(F)(F)F)c1 [Compound A-152] | > 7.00 |
| O=C(Nc1cc(-c2nc3ccccc3[nH]2)[nH]n1)c1ccc(N2CCC(CO)CC2)nc1 [Compound A-67] | > 7.00 |
| Cn1nc(NC(=O)c2ccc(N3CCN(C(=O)CO)CC3)nc2)cc1-c1nc2ccccc2[nH]1 [Compound A-269] | 6.52 to 7.00 |
| CCOC(=O)[C@@H]1CCCN1c1ccc(C(=O)Nc2cc(-c3nc4cccc(F)c4[nH]3)n(C)n2)cn1 [Compound A-147] | < 6.00 |
| COc1ccc(C(=O)Nc2n[nH]c(-c3nc4ccccc4[nH]3)c2Br)cc1Cl [Compound A-71] | 6.00 to 6.52 |
| CN1CCN(c2ccc(C(=O)Nc3cc(-c4nc5ccccc5[nH]4)[nH]n3)cn2)CC1=O [Compound A-243] | 6.00 to 6.52 |
